Substrate: CC(C)=CCC/C(C)=C/CC/C(C)=C/CO[P@@](=O)(O)OP(=O)(O)O
Assay: purified protein
Type: biochemical, Coniophora puteana
Settings: 25 °C, FPP 0-70 µM in methanol, 0.8–1.2 µM enzyme
Exercise: state measured Km for each of the proteins provided.
Answers are plain numbers, in µM.

• Copu9 (Coniophora puteana RWD-64-598 SS2; C76V) (protein, full-length, codon-optimized, N-terminal hexa-His tag (pET-M11), expressed in E. coli BL21 RIL DE3; homodimer; 13 N-terminal residues not visible in crystal) MSPTATFTTTSSEENAPTKFILPDLVSDCTYPLLLNDNCEPVARASEQWLIAGARLQEPRRTKFMGLLAGELTAAVYPHADASHLRVCVDFMNWLFNMDDWLDDFDVDDTWGMRHCCLGAFRDPVGFETDKLGGLMSKSFFSRFRQDGGPGCTERFIHTMDLFFIAVAQQAGDRANGITPDLESYITVRRDTSGCKPCFALIEYAAGIDLPDHVIYHPTLAAMEEATNDLVTWSNDIFSYNKEQVTDDTHNMIPVLMRERGLDLQGAVDFVGRLCKGTIERFETERARLPSWGPELDAQVQTYIEGLQNWIVGSLHWSFDSHRYFGKDGHAVKKHRIVKLLPKRVPQQA = 3.14

Kindly review the next protein as well.
Indicate its recorded Km; the protein in question is Copu9 (Coniophora puteana RWD-64-598 SS2; P197C) (protein, full-length, codon-optimized, N-terminal hexa-His tag (pET-M11), expressed in E. coli BL21 RIL DE3; homodimer; 13 N-terminal residues not visible in crystal) MSPTATFTTTSSEENAPTKFILPDLVSDCTYPLLLNDNCEPVARASEQWLIAGARLQEPRRTKFMGLLAGELTAACYPHADASHLRVCVDFMNWLFNMDDWLDDFDVDDTWGMRHCCLGAFRDPVGFETDKLGGLMSKSFFSRFRQDGGPGCTERFIHTMDLFFIAVAQQAGDRANGITPDLESYITVRRDTSGCKCCFALIEYAAGIDLPDHVIYHPTLAAMEEATNDLVTWSNDIFSYNKEQVTDDTHNMIPVLMRERGLDLQGAVDFVGRLCKGTIERFETERARLPSWGPELDAQVQTYIEGLQNWIVGSLHWSFDSHRYFGKDGHAVKKHRIVKLLPKRVPQQA
6.82
